Test system: FLT1
Settings: concentration: 1 μM, replicates: in singlicate; n = 1;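 also: KINOMEscan kinase panel screen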
# maps each entry to its %Inh
Numeric only. Scale: %

molecule: Nc1nccc(-c2c(-c3ccc(F)cc3)ncn2C2CCN(CC(F)(F)F)CC2)n1
%Inh / %: 9
--
molecule: Cc1cccc(-c2nc(-c3ccc(S(C)(=O)=O)cc3)sc2-c2ccncc2)c1
%Inh / %: 0
--
molecule: COc1cc2c(cc1OCCN1CCN(C)CC1)ncc1c3ccc(C#N)cc3[nH]c21
%Inh / %: 14
--
molecule: O=c1cc(N2CCOCC2)nc2n(Cc3cccc(Cl)c3Cl)c(C3CC3)nn12
%Inh / %: 6

Shift focus to the following entry.
Field %Inh (entry Cc1c(Cn2c(C)nn3c(=O)cc(N4CCOC(C)C4)nc23)cccc1C(F)(F)F (centres unmarked) ) reads 25

---

Listing of recorded %Inh by entry.
System: GCN2(Kin.Dom.2,S808G)
Construct: gene EIF2AK4
Settings: concentration: 1 μM, replicates: in singlicate; n = 1
Just the number please, in %, no unit attached.

Example entries and their recorded answers appear below.
compound: CCn1cnc2c(N)ncnc21
%Inh, %: 6
--
compound: Cn1ccc2ncnc(Oc3ccc(NC(=O)Nc4ccncc4)c(Cl)c3)c21
%Inh, %: 11

For this compound ( "O=C(NOCC1CC1)c1ccc(F)c(F)c1Nc1ccc(I)cc1Cl" ), measured %Inh is 0

Documented %Inh of "Cc1ccc(NC(=O)c2ccnc(N3CCN(C)CC3)c2)cc1-c1ccc(C(=O)NCC2CC2)cc1" : 0

Entry Cc1c(Cn2c(C)nn3c(=O)cc(N4CCOC(C)C4)nc23)cccc1C(F)(F)F (centres unmarked) — recorded %Inh = 0

---

Entries and their %Inh
Test system: SYK
Settings: concentration: 1 μM, replicates: in singlicate; n = 1

Worked cases, %Inh given:
compound: COc1ccc(CNC(=O)NC2CCN(c3ccnc(Nc4ccc(OC)cc4)n3)C2)cc1 (stereo not drawn) [GSK1379727]
%Inh: 22%
--
compound: CCc1nc(-c2cccc(C)c2)c(-c2ccnc(NCc3ccccc3)c2)s1
%Inh: 0%
--
compound: COc1ccc(COc2cc(-n3cnc4ccccc43)sc2C(N)=O)cc1 [GSK1024304]
%Inh: 26%
--
compound: O=C1Cc2cc(Nc3nc(NCc4cccc(S(=O)(=O)C(F)(F)F)c4)ncc3C(F)(F)F)ccc2N1
%Inh: 6%
--
compound: CCc1ccnc(/C=C/c2n[nH]c3cc(Sc4ccccc4C(=O)NC)ccc23)c1
%Inh: 0%

Short answer for O=C1NC(=O)C(N2CCc3ccccc32)=C1c1cccc(Cl)c1 [SB-408010] : %Inh was 0%

Record summary for CN(C(=O)c1ccc(-c2cc(-c3c[nH]nc3-c3ccccn3)ccn2)cc1)C1CCOCC1 [GW810083] : reported %Inh = 0%

O=C(c1ccc(-c2cc(-c3c[nH]nc3-c3ccccn3)ccn2)cc1)N1CCOCC1 [GW812171] yielded %Inh of 0%

The reported value for Cn1cc(-c2ccc3c(c2)CCN3C(=O)Cc2ccccc2Cl)c2c(N)ncnc21 [GSK2608885] in terms of %Inh is 51%

// sample O=c1cc(N2CCOCC2)nc2n(Cc3cccc(C(F)(F)F)c3)ccn12 [GSK2297543] , its %Inh was 27%

Sample "Cc1cccc(-c2nc(-c3ccc(S(C)(=O)=O)cc3)sc2-c2ccncc2)c1" ; %Inh observed: 25%
